Molecular target: STAT6 (Homo sapiens, UniProt P42226)
Construct: These cells express endogenous STAT6; host or cells: HeLa LgBiT clone 4.14
Sequence (P42226 1-847): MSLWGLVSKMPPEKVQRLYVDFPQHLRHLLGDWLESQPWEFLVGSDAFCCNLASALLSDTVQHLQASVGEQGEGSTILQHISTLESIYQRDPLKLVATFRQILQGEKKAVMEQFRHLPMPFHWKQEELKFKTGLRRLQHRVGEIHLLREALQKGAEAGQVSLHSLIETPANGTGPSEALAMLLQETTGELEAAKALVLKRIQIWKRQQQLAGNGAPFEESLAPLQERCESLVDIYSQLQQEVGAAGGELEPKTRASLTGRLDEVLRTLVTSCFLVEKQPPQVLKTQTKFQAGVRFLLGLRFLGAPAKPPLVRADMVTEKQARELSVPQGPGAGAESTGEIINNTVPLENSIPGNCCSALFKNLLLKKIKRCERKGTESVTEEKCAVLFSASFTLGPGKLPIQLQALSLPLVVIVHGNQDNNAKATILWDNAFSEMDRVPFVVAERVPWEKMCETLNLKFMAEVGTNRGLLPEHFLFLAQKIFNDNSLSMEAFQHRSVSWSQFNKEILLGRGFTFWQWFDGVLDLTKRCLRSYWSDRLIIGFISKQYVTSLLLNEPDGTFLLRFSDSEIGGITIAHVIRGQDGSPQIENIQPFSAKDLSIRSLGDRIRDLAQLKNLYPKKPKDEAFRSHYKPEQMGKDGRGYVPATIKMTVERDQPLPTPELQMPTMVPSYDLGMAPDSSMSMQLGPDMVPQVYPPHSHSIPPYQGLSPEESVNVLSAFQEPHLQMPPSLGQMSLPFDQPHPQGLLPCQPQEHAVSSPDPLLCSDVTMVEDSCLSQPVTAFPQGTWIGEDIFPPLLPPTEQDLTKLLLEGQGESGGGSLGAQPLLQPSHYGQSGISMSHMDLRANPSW
Experiment: Stat6 Degrader Assay (HiBiT based, HeLa LgBiT clone 4.14)
Type: cell-based
Details: HeLa LgBiT clone 4.14 HiBiT-STAT6, 4-24 h incubation; values given for compounds with >80% Emax; geometric mean; read-out: STAT6 degradation DC50
Examples of compounds with documented DC50 follow.
Write the quantity with the unit trailing the number.

Known results for compounds:
INSERT INTO results (compound, readout_label, measured) VALUES
  ('CNc1ccn(-c2ccnc3c2cc([C@H](C)N2CCC(c4c(C)cc(C(=O)N5CCC(CN6CCN(Cc7ccc8c(c7)n(C7CC7)c(=O)n8[C@@H]7CCC(=O)NC7=O)C[C@@H]6C)CC5)cc4F)CC2)n3C)c(=O)c1 (single isomer, unassigned)', 'DC50', '1.1 nM'),
  ('Cc1cc(C(=O)N2CCC(CN3CCN(Cc4cc5c(cc4F)n([C@@H]4CCC(=O)NC4=O)c(=O)n5C4CC4)C[C@@H]3C)CC2)cc(F)c1C1=CCN([C@@H](C)c2cc3c(-n4ccc5c(c4=O)CCN5)ccnc3n2C)CC1 (single isomer, unassigned)', 'DC50', '0.8 nM'),
  ('CNc1ccn(-c2ccnc3c2cc([C@H](C)N2CC=C(c4c(F)cc(C(=O)N5CCC(CN6CCN(Cc7ccc8c(c7)n(C7CC7)c(=O)n8[C@@H]7CCC(=O)NC7=O)C[C@@H]6C)CC5)cc4F)CC2)n3C)c(=O)c1 (single isomer, unassigned)', 'DC50', '7.5 nM');

Form field, DC50 with STAT6 (Homo sapiens, UniProt P42226), item CNc1ccn(-c2ccnc3c2cc([C@H](C)N2CC=C(c4c(C)cc(C(=O)N5CCC(CN6CCN(Cc7cc8c(cc7F)n(C7CCC(=O)NC7=O)c(=O)n8C7CC7)C[C@@H]6C)CC5)cc4F)CC2)n3C)c(=O)c1 (stereo partly shown) : 1.1 nM

Form field, DC50 with STAT6 (Homo sapiens, UniProt P42226), item CNc1ccn(-c2ccnc3c2cc([C@H](C)N2CC=C(c4c(C)cc(C(=O)N5CCC(CN6CCN(Cc7cc8c(cc7F)n([C@H]7CCC(=O)NC7=O)c(=O)n8C)CC6)CC5)cc4F)CC2)n3C)c(=O)c1 (single isomer, unassigned) : 0.5 nM

Form field, DC50 with STAT6 (Homo sapiens, UniProt P42226), item CNc1ccn(-c2ccnc3c2cc([C@H](C)N2CC=C(c4c(C)cc(C(=O)N5CCC(CN6CCN(Cc7cc8c(cc7F)n([C@@H]7CCC(=O)NC7=O)c(=O)n8C7CC7)C[C@@H]6C)CC5)cc4F)CC2)n3C)c(=O)c1 (single isomer, unassigned) : 2.1 nM

Form field, DC50 with STAT6 (Homo sapiens, UniProt P42226), item CNc1ccn(-c2ccnc3c2cc([C@H](C)N2CC=C(c4c(C)cc(C(=O)N(C)c5ccc(C6CCN(Cc7ccc8c(c7)n(C)c(=O)n8C7CCC(=O)NC7=O)CC6)nc5)cc4F)CC2)n3C)c(=O)c1 (stereo partly shown) : 0.1 nM

Form field, DC50 with STAT6 (Homo sapiens, UniProt P42226), item CNc1ccn(-c2ccnc3c2cc([C@H](C)N2CC=C(c4c(C)cc(C(=O)N5CCC(CN6CCN(Cc7ccc8c(c7)n(C)c(=O)n8[C@H]7CCC(=O)NC7=O)CC6)CC5)cc4F)CC2)n3C)c(=O)c1 (single isomer, unassigned) : 0.6 nM

Form field, DC50 with STAT6 (Homo sapiens, UniProt P42226), item Cc1cc(C(=O)N(C)c2ccc(C3CCN(Cc4ccc5c(c4)n(C)c(=O)n5C4CCC(=O)NC4=O)CC3)cc2)cc(F)c1C1=CCN([C@@H](C)c2cc3c(-n4ccc5c(c4=O)CCN5)ccnc3n2C)CC1 (stereo partly shown) : 0.1 nM

Form field, DC50 with STAT6 (Homo sapiens, UniProt P42226), item CNc1ccn(-c2ccnc3c2cc([C@H](C)N2CC=C(c4c(C)cc(C(=O)N5CCn6nc(CN7CCN(c8ccc9c(c8)n(C)c(=O)n9C8CCC(=O)NC8=O)CC7)cc6C5)cc4F)CC2)n3C)c(=O)c1 (stereo partly shown) : 0.4 nM

Form field, DC50 with STAT6 (Homo sapiens, UniProt P42226), item CNc1ccn(-c2ccnc3c2cc(CN2CC=C(c4c(F)cc(C(=O)N5CCC(CN6CCN(Cc7ccc8c(c7)n(C)c(=O)n8[C@@H]7CCC(=O)NC7=O)C[C@@H]6C)CC5)cc4F)CC2)n3C)c(=O)c1 (single isomer, unassigned) : 1.8 nM
